Molecular target: T1, human 5T4 (trophoblast glycoprotein), endogenous on the cell surface (human, UniProt Q13641 32-420)
T1 construct: also called TPBG; 5T4 oncofetal antigen
T1 sequence: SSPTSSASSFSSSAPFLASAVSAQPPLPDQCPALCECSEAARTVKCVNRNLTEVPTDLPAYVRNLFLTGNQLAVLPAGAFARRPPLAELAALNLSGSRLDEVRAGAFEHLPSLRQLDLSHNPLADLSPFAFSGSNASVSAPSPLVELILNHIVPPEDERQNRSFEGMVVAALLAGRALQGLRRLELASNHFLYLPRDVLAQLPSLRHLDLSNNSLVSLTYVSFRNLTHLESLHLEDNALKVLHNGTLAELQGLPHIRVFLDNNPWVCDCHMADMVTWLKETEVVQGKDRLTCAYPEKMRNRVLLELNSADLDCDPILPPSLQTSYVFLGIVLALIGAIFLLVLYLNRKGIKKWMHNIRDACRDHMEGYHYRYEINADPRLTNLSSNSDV
Experiment: flow cytometry (FL4), sdAb-Fc titrated on HEK-293 freestyle (293FS) cells endogenously expressing 5T4
readout.type: EC50 (read off the curve)

INSERT INTO measurements (binder, readout_type, recorded_measurement) VALUES
  ('4D3 sdAb-Fc (Fc fusion, not shown: a dimerising Fc or GST, Camelid derived sdAb tested as sdAb-Fc) QVQLQESGGGLVQAGGSLRLSCAASRRPFSSKTMAWFRQTPGKEREFVAAVRWIGGATRYTDSVKGRFSISKDNAINTVYLQTNSLKSEDTAVYYCAAGQTWGTKFTDYSDWGQGTLVTVKP', 'EC50 (read off the curve)', '~0.2 nM'),
  ('7E1 sdAb-Fc (Fc fusion, not shown: a dimerising Fc or GST, Camelid derived sdAb tested as sdAb-Fc) QVQLVQSGGGLVQAGASLRLSCVASGRTRSLRTMAWFRQAPGKERIFVAAISWRSDSTYYADSVKGRFTISRDNAKNTAYLQMNTLKPEDTAVYYCAAGGGWLATTPDEYTYWGQGTLVTVKP', 'EC50 (read off the curve)', '~0.2 nM'),
  ('12E9 sdAb-Fc (Fc fusion, not shown: a dimerising Fc or GST, Camelid derived sdAb tested as sdAb-Fc; also called L12E9; 12E9-Fc) QVQLVQSGGGLVQAGGSLRLSCAASRRPFSSKTMAWFRQTPGKEREFVAAVRWIGGATRYTDSVKGRFSISKDNAINTVYLQMNSLKSEDTAVYYCAAGQAWGTKFTDYSDWGQGTQVTVKP', 'EC50 (read off the curve)', '~0.1 nM'),
  ('14B5 sdAb-Fc (Fc fusion, not shown: a dimerising Fc or GST, Camelid derived sdAb tested as sdAb-Fc; also called L14B5) QVQLVQSGGGLVQAGDSLTLSCAVSERPFGTYAMGWFRQAPGRERDLVAAVSRNGGASQYGDSVKGRFSISRDNIKNTMYLQMNSLKPEDTAVYYCAARSAAYSRSSEVYTGKDEYYYWGQGTQVTVKP', 'EC50 (read off the curve)', '~0.5 nM'),
  ('14F4 sdAb-Fc (Fc fusion, not shown: a dimerising Fc or GST, Camelid derived sdAb tested as sdAb-Fc) QVQLQESGGGLMQAGDSLRLSCVVSGVTWNSYTMAWFRQAPGKEREFVAAIRWTVDTTYYADFVKGRFTISRDYAKKTMYLQMNNLKPEDAAVYYCAVGRKWPKADDYWGQGTLVTVKP', 'EC50 (read off the curve)', '~1 nM');

Please turn your attention to the following entry.
Request: Look up EC50 (read off the curve) for this binder: 16G10 sdAb-Fc (Fc fusion, not shown: a dimerising Fc or GST, Camelid derived sdAb tested as sdAb-Fc; also called L16G10) QVQLLQSGGGLVQAGGSLILSCAVSGRPFSSSAMGWFRQAPGKERETVAAVSRNGGSSYYADFVKGRFTISRDNDKNTVYLQMNSLKPEDTAVYYCAARSAAYSRSSETYTEKHDYTYWGQGTQVTVKP
Result: ~1 nM
